- target_entity: T1, human MSLN protein endogenously expressed on OVCAR3 tumor cells (human, UniProt Q13421 296-598)
- T1 construct: whole, on cells; Endogenous target on OVCAR3 cells; kept apart from the recombinant full-length construct; also called mesothelin
- assay: FACS on OVCAR3 cells
measure_name: Maximum mean fluorescence intensity
Answers are plain numbers.

{"columns": ["binder", "reading"],
 "data": [
  ["S009-F2.16.10 (antibody, human IgG1, kappa, V domains shown, human-murine chimeric antibody, human IgG1/kappa constant regions) VH: QVQLQQPGAELIKPGASVKLSCKASGYTFTSYWMHWVKQRPGQGLEWIGIIHPNIGSTNYNERFKSKATLTVDKSSSTAYMQLSSLTSEDSAVYYCARRSSNYGDWYFDVWGTGTTVTVSS VL: DIVMTQSHRFMSTSVGDRVSITCKASQDVGTSVAWYQQKPGQSPKLLIYWASTQHTGVPDRFTGSGSGTDFTLTINNVQSEDLLDYFCQQYSSYPLTFGAGTKLELKR", 14400],
  ["S009-F2.47.1 (antibody, human IgG1, kappa, V domains shown, human-murine chimeric antibody, human IgG1/kappa constant regions) VH: QVQLQQPGAELVKPGASVKLSCKASGYTFTSYWMHWVKQRPGQGLEWIGMIHPNSGSTNYNEKFKSKATLTVDKSSSTAYMQLSSLTSEDSAVYYCARPVVPYWYFDVWGTGTTVTVSS VL: DIVMTQSQKFMSTTVGDRVSITCKASQNVGTAVAWYQQKPGQSPKLLIYSASNRYTGVPDRFTGSGSGTDFTLTISNMQSEDLADYFCQQSSSYPLTFGAGTKLELKR", 15400]
]}

--- query ---
Exam item: For the binder shown here, S009-F2.13.3 (antibody, human IgG1, kappa, V domains shown, human-murine chimeric antibody, human IgG1/kappa constant regions) VH: QVQLQQSGAELMKPGASVKLSCKATGYTFTGYWIEWVKQRPGHGLEWIGEILPGSGSTNYNEKFKGKATFTADTSSNTAYMQLSSLTTEDSAIYYCARAGAWFAYWGQGTLVTVSA VL: QIVLTQSPAIMSASLGERVTMTCTASSSVSSSYLHWYQQKPGSSPKLWTYSTSNLASGVPARFSGSGSGTSYSLTISSMEAEDAATYYCHQYHRSPWTFGGGTKLEIKR , give the reported Maximum mean fluorescence intensity.
Marked response: 14800
